experimental-details: protein stability index of a GFP-peptide fusion (GPS, HEK-293T) (PSI 1-6); higher = more stable;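 note: 24-mer peptide tiles fused after GFP, lentivirally expressed, FACS-sorted into six equal bins by GFP/DsRed ratio, decoded by Illumina sequencing, PSI is the read-weighted mean bin number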
measurement-setup: treatment: MLN4924 1 uM, 8 h; c terminus: a fixed tail appended
measure: protein stability index
Numbers only.

LPDSPLRFDGLPAVLGFPGFSSGR [TRIM15] :: 3.18

For every item in the list below, what is its measured protein stability index?
1. GATPSYHWDLAELLPNQSHGNQSA [SLC22A15]
2. EPYPSQLLKPIPEYSPEEESEPPA [TRAF3IP2]

4.22
5.66

====

experimental-details: protein stability index of a GFP-peptide fusion (GPS, HEK-293T) (PSI 1-6); higher = more stable
measurement-setup: treatment: MLN4924 1 uM, 8 h; c terminus: a fixed tail appended
Rule: protein stability index under 3 gives false, otherwise true.

PCGPNMSEVSCKKRDDYLEWPEYF [DCTD] :: true
PVSGKAVFMEFGPPNQQMSPSPMS [DLX1] :: true
NNFDNLDFDLDLVPWESDIWDINN [ATF6] :: true
TSYYIRYRGAVYADSGNFKRCINL [FEM1C] :: false

Reported protein stability index at or above 3? KTPEEAYRALLSGSNPPYLPFRDA [CDC14A]
true

Reported protein stability index at or above 3? QLLKNNEKLITWLNKELNENQLVR [SASS6]
false

Reported protein stability index at or above 3? LFVGLYYNVIIGWSIFYFFKSFQY [SLC6A17]
true

Reported protein stability index at or above 3? ISSIGQVQSYMEHYCNSSTDRRVL [SPACA9]
true

Reported protein stability index at or above 3? CIKIWDVTSQATLLTITKAHSNAI [WDR88]
false

Reported protein stability index at or above 3? EIIEGNTKSHIMLVQRQMSVIEED [NECAB1]
true

Reported protein stability index at or above 3? KSGEGFIDFIGQVHKTKEQFGQDG [PTPRD]
true

====

experimental-details: protein stability index of a GFP-peptide fusion (GPS, HEK-293T) (PSI 1-6); higher = more stable
measurement-setup: treatment: DMSO; c terminus: a fixed tail appended
Rule: protein stability index under 3 gives not met, otherwise met.

Answered examples (6):
WLLTHLLWFANAHLLSWFSPTIIF [DHCR7] :: met
HFWGEKNHGFEVLYHSVKQGPIST [FCHO1] :: not met
TYLSKVDPDGKKIKQIQQLFEEIL [FBXO33] :: not met
HIDIVKELIKWRAAIVVNGHGMTP [FEM1B] :: not met
RLASYLDKVRALEEANADLEVKIH [KRT15] :: not met
QIGCKLPDDYRCSYRIHNGQKLVV [FBXO3] :: not met

Reported protein stability index at or above 3? AIMLLPDENREVLQTLLYFLSDVT [DLC1]
not met

Reported protein stability index at or above 3? NGSDPRSFPLWYEEALKDEEERAQ [MAGEA10]
met

====

experimental-details: protein stability index of a GFP-peptide fusion (GPS, HEK-293T) (PSI 1-6); higher = more stable
measurement-setup: treatment: MLN4924 1 uM, 8 h; c terminus: a fixed tail appended
measure: protein stability index
One number for each entry.

Below, each entry is followed by its recorded protein stability index result.
PVESHIQKNKKILKSAKDLPPDAL [KMT2E] :: 4.71
MSMNNSKQLVSPAAALLSNTTCQT [PTGFR] :: 3.99
RQGLKYCLPLTFCIHTGLSQYIAV [FBXO3] :: 2.87
CRGKKPSRIYGQAMAIINGSLYVF [KLHDC10] :: 2.51
RDRFKSFQRRNMIEPRERAKFKRK [NOP53] :: 4.54
ALKERADSLAKEIQYLKDLIEEVR [ATF4] :: 4.59
QLAQLRCEMEQQSQEYQILLDVKT [KRT16] :: 3.55
WDMNSAPRLVSETAERKQEQKTGT [MFSD9] :: 5.38
LLCLFFGIPWEAGARQISYSIPEE [PCDHGA10] :: 2.45
RDAIEALCRRLNTLNKCAVMKLEI [DLC1] :: 2.54

For every item in the list below, what is its measured protein stability index?
1. PPVTDLGELRRRPGDMKTKMELLI [CPOX]
2. RLVNEYVELVNAACNFEPHESFFS [ZER1]
3. KIKPEARRYLEKSIKMGKRNGLHL [NLN]
4. LHDARLLRTIPSPYPASKADIPSV [DCAF4]
5. NLSKSRKILRSMSRKVTTNKLLLS [VTI1B]
6. SSVQSYPGSASLAQSRLEDPGADS [DLX1]
7. RLGQRQPPPSEPTQGPEIVPRGAG [DNAJC4]

1. 3.03
2. 2.1
3. 2.53
4. 3.43
5. 2.92
6. 5.52
7. 4.84

====

Give measured protein stability index for each item. Keep answers brief.
experimental-details: protein stability index of a GFP-peptide fusion (GPS, HEK-293T) (PSI 1-6); higher = more stable
measurement-setup: treatment: MLN4924 1 uM, 8 h; c terminus: a fixed tail appended
Numbers only.

Below, each entry is followed by its recorded protein stability index result.
RRTLQGLEIELQSQLSMKAGLENT [KRT13] :: 3.34
QLKWASWELHSLRHCDDDGRTENG [ZNF24] :: 4.04
GVPVQPVLIRYPNSLDTTSWAWRG [LPCAT4] :: 2.34
QTRNGLGKDHEILRRRIENGAKEL [FUT8] :: 4.33
IPPSSDRTPEILKKALSGLSSRWK [CDS1] :: 2.29

For every item in the list below, what is its measured protein stability index?
1. MVFEVLGHHLLKWIIKSNYQGLPV [SRPK2]
2. THVLSKEVQHLREEKSKQFLDLME [LRRC45]

1. 3.12
2. 3.81

For every item in the list below, what is its measured protein stability index?
1. ELSPPLSPASHVDVDLTIHGRHID [FOXJ1]
2. LWLRPEVHTKEQILELLVLEQFLA [ZNF396]
3. RPHGIFGPRDPQLVPILIEAARNG [NSDHL]
4. RVLDGKEAKAVGLISHVLEQNQEG [AUH]
5. RLNAYRGYCSNQLAAKALLDQKKQ [NET1]
6. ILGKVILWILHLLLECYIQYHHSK [TMEM192]

4.84
2.73
3.04
4.95
3.25
2.9

====

experimental-details: protein stability index of a GFP-peptide fusion (GPS, HEK-293T) (PSI 1-6); higher = more stable
measurement-setup: treatment: MLN4924 1 uM, 8 h; c terminus: native
measure: protein stability index
One number for each entry.

HVLALGLGIYIGKRLSTPSASTY [BNIP3L] :: 3.2
FRKIKDHFCPFENQFHTEIQILA [C8orf76] :: 3.26
ARRQWRDECLMRLAKLKSQVQPQ [CRYL1] :: 3.33
HSQRTALHLAAQKALRTISTGRI [INVS] :: 2.36
DPHTKKALEAHCRADELASQDGR [PPP2R5C] :: 5.3

For every item in the list below, what is its measured protein stability index?
1. TLTVFPPEETTPSPSRESPLSAP [KLHL13]
2. HSSDEDEDEDDEEDFEDDDEWED [WASL]

1: 5.18; 2: 3.33

====

experimental-details: protein stability index of a GFP-peptide fusion (GPS, HEK-293T) (PSI 1-6); higher = more stable
measurement-setup: treatment: MLN4924 1 uM, 8 h; c terminus: a fixed tail appended
measure: protein stability index
Give bare numbers.

Below, each entry is followed by its recorded protein stability index result.
GLGCKDLDLIFHVALPTEAEFQLV [TENT5C] :: 2.28
LVNMGISVVSYTLKDIHDDQDYLH [FLOT1] :: 2.22
NESHSIKAILKNISVLAFSVCFIF [SLC29A1] :: 2.54

For every item in the list below, what is its measured protein stability index?
1. IIYPRQQLLTLRELEMIGFIENNV [TRIP13]
2. PGGLVGSADVVSPSGHSDAQTLAM [PPFIA4]
3. EGGLYFERRPVAQSTDGARGKRGY [SPSB2]
4. PTSPVQGTTPQISPSTLIGSLRTL [HDAC6]
5. AREGRETLKCLSHHVADAYTSSQK [TOR1AIP2]
6. PELTPEEEQATKQFLEEINKWTVQ [PTPN9]
7. VYTGKLLLNLVDHTEVVRDLTFAP [WSB1]

2.26
4.43
5.03
3.79
4.44
4.86
2.36

For every item in the list below, what is its measured protein stability index?
1. LPQDEGGGGYSSVRYSDCCERVVI [KCNA4]
2. EATHEPAAARIRAQVPDTRWSRVG
3. EAVRQEMRRQEPLPPPPPPSRGGN [WAS]
4. TCICYLCMFQEHKNHSTVTVEEAK [TRIM29]

1. 2.77
2. 4.05
3. 5.19
4. 2.67

For every item in the list below, what is its measured protein stability index?
1. SPTIIFDNWIPLLWCANILGYAVS [DHCR7]
2. QFYGYLSQQQNMMQDYVRTGTYQR [CARM1]
3. FAWSQGHRTVKLVPWSQCLQNFLL [WSB1]
4. CSRQFPEFQERARKRIRTYLKSCR [NOL4L]
5. YRSPEPDPYLSYRWKRRRSYSREH [CLK3]
6. LRVMETKPDKAVSIIECDMNVDFD [UFD1]
7. SQDERLDVLLTLKHTVKEHECKLT [IQUB]

1. 3.48
2. 2.72
3. 2.3
4. 3.36
5. 3.71
6. 3.53
7. 3.41

For every item in the list below, what is its measured protein stability index?
1. DTHNTNNLDTEELCEYFSQHLGEY [NECAB1]
2. DSYYRLVIHRALDREQVSSYNITV [PCDHGA10]
3. RDHVETELLKEAELIRNIQELLKR [TEKT4]
4. ICMAQIAYSGNTSNLSYHLEKNHP [ZBED1]
5. VHRKSCSTGEAGTDGDHNVYPRPP [ZC2HC1C]

4.17
2.44
3.01
2.38
4.45

For every item in the list below, what is its measured protein stability index?
1. REKPFKCQECGKTFRVSSDLIKHQ [ZNF75A]
2. LDAVENQLKWASWELHSLRHCDDD [ZNF24]
3. IRAMGRLKIDFGDSARADDARQLF [GNAI1]
4. KGAILTTMLATRNFSAAKSLLKKP [CAMK2D]
5. SPESSRGQCGENLAWASYDQTGKE [GLIPR2]
6. NEVIADINCKGRSKSNLGWTPLHL [OSBPL1A]
7. TAKDNGEAEDQEEKEDAEKENIEK [SRPK2]

4.72
4.03
2.77
2.8
4.73
2.76
5.67

For every item in the list below, what is its measured protein stability index?
1. YSKESIIFGASSVDFSLSGRLLFA [GNB5]
2. PKTNEDFEFLYNALEFWRQEELTR [IQUB]

1: 2.78; 2: 2.23

For every item in the list below, what is its measured protein stability index?
1. EFDLSPLNLDIGQVYKETRLFLDG [AASDHPPT]
2. QINDGMGGDGDDMEIFMEEMREIR [BEX3]
3. AAVSRKKKRRMGTYSLVPKKKTKV [EHMT1]
4. ADFSSMLSEEEKEELKAELVQLED [TPD52L1]
5. YNVYSTFQSHEPEFDYLKSLEIEE [PPP2R2B]

1: 2.96; 2: 4.75; 3: 4.32; 4: 5.3; 5: 3.92

For every item in the list below, what is its measured protein stability index?
1. LSSEVLVGDLMSPFDQSGLGAEES [ATF4]
2. SSNKKEKKVLNHGYDDDNHDYIVR [DYRK1B]
3. LQLGEGVEFDVLPAFDALGQLTGG [OAS1]
4. GRPPDPADWAVMDVVNYFRTVGFE [SAMD13]
5. GVPPLKLCKNLNREAQQYSEALAS [GLIPR2]
6. EHCGAVCFVKDNPQKSYFIRLYGL [WAS]
7. ELFVREPTGRLPALVRWWNGIGAV [MYORG]
8. DGKCAYRASYSDGKLKAPPKPCAG [MLH1]

4.84
4.45
2.72
2.78
3.96
2.31
2.4
4.06
